# SYSTEM_NAME: Protein-tyrosine kinase 2-beta (Homo sapiens, UniProt Q14289); note: in the data inactive means no Kd found up to 30 µM
# Sequence (Q14289 whole entry): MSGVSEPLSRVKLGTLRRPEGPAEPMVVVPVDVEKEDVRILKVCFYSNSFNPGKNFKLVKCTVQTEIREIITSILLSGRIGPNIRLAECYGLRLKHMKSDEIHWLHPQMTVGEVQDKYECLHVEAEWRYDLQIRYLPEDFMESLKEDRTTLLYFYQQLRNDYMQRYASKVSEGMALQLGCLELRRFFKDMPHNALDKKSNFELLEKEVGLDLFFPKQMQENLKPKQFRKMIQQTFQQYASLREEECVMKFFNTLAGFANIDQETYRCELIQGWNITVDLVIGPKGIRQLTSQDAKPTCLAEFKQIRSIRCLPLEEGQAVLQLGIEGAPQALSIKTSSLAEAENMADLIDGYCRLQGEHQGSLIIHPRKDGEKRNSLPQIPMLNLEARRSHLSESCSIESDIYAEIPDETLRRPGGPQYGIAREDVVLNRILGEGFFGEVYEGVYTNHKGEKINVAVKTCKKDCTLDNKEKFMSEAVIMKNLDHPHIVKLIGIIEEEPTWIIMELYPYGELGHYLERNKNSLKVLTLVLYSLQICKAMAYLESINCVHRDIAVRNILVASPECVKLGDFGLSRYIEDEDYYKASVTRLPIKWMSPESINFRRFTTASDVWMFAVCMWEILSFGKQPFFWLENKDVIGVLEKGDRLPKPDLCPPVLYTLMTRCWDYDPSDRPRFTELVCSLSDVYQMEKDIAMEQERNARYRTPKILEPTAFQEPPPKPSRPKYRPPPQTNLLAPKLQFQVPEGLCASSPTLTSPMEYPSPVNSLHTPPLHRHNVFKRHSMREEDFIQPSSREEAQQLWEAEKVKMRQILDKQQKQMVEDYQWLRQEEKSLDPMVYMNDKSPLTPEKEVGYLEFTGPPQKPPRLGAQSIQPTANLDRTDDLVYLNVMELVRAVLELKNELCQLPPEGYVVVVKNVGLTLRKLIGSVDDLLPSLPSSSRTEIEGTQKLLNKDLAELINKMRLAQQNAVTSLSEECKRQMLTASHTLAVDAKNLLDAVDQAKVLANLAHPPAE
Calls of active or inactive are those of the source.
Classes to choose from: yes (active), no (inactive)

Worked examples, 8 compounds total:
CCN1CCN(Cc2ccc(-c3cc4c(N[C@H](C)c5ccccc5)ncnc4[nH]3)cc2)CC1    no
N[C@@H]1CCCN(c2c(/C=C3\SC(=O)NC3=O)cccc2-c2ccccc2)C1    no
Cc1cc([C@@H](C)Nc2ccccc2C(=O)O)c2nc(N3CCOCC3)cc(=O)n2c1    no
CC(C)Nc1cc(-c2c[nH]c(C(=O)N[C@H](CO)c3cccc(Cl)c3)c2)c(Cl)cn1    no
COC(=O)[C@@]1(O)C[C@H]2O[C@]1(C)n1c3ccccc3c3c4c(c5c6ccccc6n2c5c31)C(=O)NC4 [K-252A]    yes
OCCn1cc(-c2cnc3nnn(Cc4ccc5ncccc5c4)c3n2)cn1    no
Cc1cc(Nc2cc(N3CCN(C)CC3)nc(/C=C/c3ccccc3)n2)n[nH]1    no
CCS(=O)(=O)N1CC(CC#N)(n2cc(-c3ncnc4[nH]ccc34)cn2)C1    no

Record request — test call for CN1CCC(COc2cnc(-c3cccc(Cn4nc(-c5cccc(C#N)c5)ccc4=O)c3)nc2)CC1
no

Please give the result for Cc1ccc(S(=O)(=O)Nc2nc3ccccc3nc2Nc2ccc3nsnc3c2)cc1 too.
no

Query C=CC(=O)N1CCC(Oc2cc3c(Nc4ccc(Cl)c(Cl)c4F)ncnc3cc2OC)CC1 next
no

Now consider CNC(=O)c1cc(Oc2ccc(NC(=O)Nc3ccc(Cl)c(C(F)(F)F)c3)c(F)c2)ccn1 and answer again.
no

And what about the compound CN(C)C(=O)c1cc2cnc(Nc3ccc(N4CCNCC4)cn3)nc2n1C1CCCC1 ?
no

Next compound: COc1ccc(-c2ccc3c(N4CCOC[C@@H]4C)nc(N4CCOC[C@@H]4C)nc3n2)cc1CO
no

Same question, C1=C/COCc2cc(ccc2OCCN2CCCC2)Nc2nccc(n2)-c2cccc(c2)COC/1 this time
no

And what about the compound COc1cc2nccc(Oc3ccc(NC(=O)Nc4cc(C)on4)c(Cl)c3)c2cc1OC ?
no

Try this compound too: CC[C@H](Nc1ncnc2[nH]cnc12)c1nc2cccc(F)c2c(=O)n1-c1ccccc1
no
